- target_or_system: NAD-dependent protein deacetylase sirtuin-2 (Homo sapiens) (UniProt Q8IXJ6)
- Sequence (whole entry): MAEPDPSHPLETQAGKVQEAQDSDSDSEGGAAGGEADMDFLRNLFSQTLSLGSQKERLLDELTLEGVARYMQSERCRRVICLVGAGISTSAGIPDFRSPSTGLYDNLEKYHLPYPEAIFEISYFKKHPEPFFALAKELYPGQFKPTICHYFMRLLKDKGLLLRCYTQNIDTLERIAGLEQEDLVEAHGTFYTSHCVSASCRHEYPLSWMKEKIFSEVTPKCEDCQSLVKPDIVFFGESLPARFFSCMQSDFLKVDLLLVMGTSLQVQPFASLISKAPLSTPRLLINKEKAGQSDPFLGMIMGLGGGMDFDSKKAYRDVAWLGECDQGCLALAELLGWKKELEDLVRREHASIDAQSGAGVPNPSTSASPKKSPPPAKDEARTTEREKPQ
- test_method_notes: Inhibition of recombinant SIRT2 (unknown origin) using RLIK(Ac)AMC as substrate assessed as reduction in deacetylase activity at 10 uM after 2 hrs in presence of NAD+ by fluorescence assay relative to control
Short version: inhibition at least 50% is condition met, less is condition not met.

Cc1cc(C)nc(SCC(=O)Nc2ccc(Sc3cccnc3)cc2)n1 : condition not met

*Q* Form field: inhibition at least 50%? Entry: COc1cccc(Sc2ccc(NC(=O)CSc3nc(C)cc(C)n3)cc2)c1
*A* condition met

*Q* Hi team, for Cc1cc(C)nc(SCC(=O)Nc2ccc(Sc3ccc(C(F)(F)F)cc3)cc2)n1 , is the recorded inhibition at or above 50%?
*A* condition not met

*Q* Given the entry Cc1cc(C)nc(SCC(=O)Nc2ccc(S(=O)(=O)c3ccccc3)cc2)n1 , answer whether its inhibition meets or surpasses 50%.
*A* condition not met

*Q* Is the recorded value of inhibition equal to or greater than 50% for this compound? Cc1cc(C)nc(SCC(=O)Nc2ccc(Sc3cccc4ccccc34)cc2)n1
*A* condition not met
